test: method code SF-HPLC, from DOI: 10.1016/j.bmc.2003.11.030, PMID: 14759727; details: pH 11.0
measured_attribute: logD

[P] COc1ccc2[nH]c(NCCc3c[nH]cn3)nc2c1
[Q] Nc1ccc2[nH]c(NCCc3c[nH]cn3)nc2c1
Please tell me which of the two, P or Q , has the higher reported logD value. Give the chosen item's label as your response.
P
(P: 1.43, Q: 0.01)

[A] c1ccc2[nH]c(NCCc3c[nH]cn3)nc2c1
[B] CCCCc1ccc2[nH]c(NCCc3c[nH]cn3)nc2c1
Hello, I am sorting some records. Could you say if A or B has the smaller logD value? // caller expects the label of the chosen entry
A

[a] c1nc(CCNc2nc3cc4c(cc3[nH]2)OCO4)c[nH]1
[b] Cc1ccc2[nH]c(NCCCc3c[nH]cn3)nc2c1
Of a and b , which shows the smaller logD value? Pick one and reply with its label.
a
